Target: T1, streptavidin (UniProt P22629 37-163, limits assumed)
T1 construct: It was used without a stated label in the sandwich assays; also called SA
T1 sequence (P22629 37-163 limits assumed): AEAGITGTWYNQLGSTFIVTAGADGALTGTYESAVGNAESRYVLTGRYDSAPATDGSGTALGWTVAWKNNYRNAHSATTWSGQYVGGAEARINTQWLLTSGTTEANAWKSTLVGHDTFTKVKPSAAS
Test: apparent Kd (Kd,app); fluorescent binding curve, labeled SA in 50% urine, 4 h; quadratic fit
Experimental readout: Kd (µM)
Output spec: scalar in µM, unitless text.

3xSP77.6k thin film (3x rcSso7d.SA-PNIPAM conjugate, PNIPAM Mn 77.6 kDa) (designed binder, maleimide end-functionalized PNIPAM (Mn 77.6 kDa) on the N-terminal Cys; film lightly crosslinked with glutaraldehyde) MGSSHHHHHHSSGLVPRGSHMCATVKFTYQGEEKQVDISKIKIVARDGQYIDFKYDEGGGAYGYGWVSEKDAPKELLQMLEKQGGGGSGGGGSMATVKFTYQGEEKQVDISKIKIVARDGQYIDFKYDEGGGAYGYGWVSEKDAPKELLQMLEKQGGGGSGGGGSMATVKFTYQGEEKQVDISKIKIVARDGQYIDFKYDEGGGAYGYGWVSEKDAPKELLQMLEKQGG
50
3xSP9.6k thin film (3x rcSso7d.SA-PNIPAM conjugate, PNIPAM Mn 9.6 kDa) (designed binder, maleimide end-functionalized PNIPAM (Mn 9.6 kDa) on the N-terminal Cys; film lightly crosslinked with glutaraldehyde) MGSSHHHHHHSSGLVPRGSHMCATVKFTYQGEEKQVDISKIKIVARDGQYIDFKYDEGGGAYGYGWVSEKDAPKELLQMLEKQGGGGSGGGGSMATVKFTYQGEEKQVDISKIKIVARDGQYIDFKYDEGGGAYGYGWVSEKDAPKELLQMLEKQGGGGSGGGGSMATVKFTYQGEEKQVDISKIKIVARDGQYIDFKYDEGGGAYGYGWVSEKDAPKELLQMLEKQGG
30

The binder identified as 3xSP30.3k thin film (3x rcSso7d.SA-PNIPAM conjugate, PNIPAM Mn 30.3 kDa) (designed binder, maleimide end-functionalized PNIPAM (Mn 30.3 kDa) on the N-terminal Cys; film lightly crosslinked with glutaraldehyde) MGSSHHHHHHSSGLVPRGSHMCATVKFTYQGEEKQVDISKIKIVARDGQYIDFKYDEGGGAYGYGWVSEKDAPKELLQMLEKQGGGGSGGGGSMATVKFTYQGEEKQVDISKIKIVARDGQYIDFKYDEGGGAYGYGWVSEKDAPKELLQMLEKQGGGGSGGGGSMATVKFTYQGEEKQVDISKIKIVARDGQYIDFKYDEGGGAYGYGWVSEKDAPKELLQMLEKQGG registered its Kd at 30

# credit: patent US20200057058A1
